Kd listing for selected compounds.
- Tested on: JNK3;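 also: kd values determined as follow-up on hits from a single-replicate KINOMEscan panel screen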
- Construct: gene MAPK10
Recorded Endpoint: Kd (µM)

[[record]]
smi = "CCC(=O)c1c(-c2ccccc2)c2cc(Cl)ccc2c(=O)n1Cc1cc(C(=O)NC2CC2)n(C)n1"
recorded_endpoint = "Kd"
experimental_value = 0.0038

[[record]]
smi = "Nc1nc(-c2ccccc2F)c(-c2ccnc3ccccc23)s1"
recorded_endpoint = "Kd"
experimental_value = 0.61

[[record]]
smi = "CCc1nc(-c2cccc(C)c2)c(-c2ccncc2)s1"
recorded_endpoint = "Kd"
experimental_value = 0.081

[[record]]
smi = "COC(=O)c1c(-c2ccccc2)c2cc(Br)ccc2c(=O)n1Cc1ccc(S(C)(=O)=O)cc1"
recorded_endpoint = "Kd"
experimental_value = 0.073

[[record]]
smi = "CCC(=O)c1c(-c2ccccc2)c2cc(Cl)ccc2c(=O)n1Cc1cc(S(C)(=O)=O)n(CC(F)F)n1"
recorded_endpoint = "Kd"
experimental_value = 0.0092

[[record]]
smi = "CCC(=O)c1c(-c2ccccc2)c2cc(Cl)ccc2c(=O)n1Cc1cc(S(C)(=O)=O)n(CCC(C)(C)O)n1"
recorded_endpoint = "Kd"
experimental_value = 0.0046


---

- System: CAMK1B
- Settings: concentration: 1 μM, replicates: in singlicate; n = 1
Recorded Endpoint: %Inh (%)

[[record]]
molecule = "CCC(=O)c1c(-c2ccccc2)c2cc(Cl)ccc2c(=O)n1Cc1cc(C(=O)NC2CC2)n(C)n1"
experimental_value = 0

[[record]]
molecule = "COc1cccc(C2=C(Nc3cccc(C(=O)O)c3)C(=O)NC2=O)c1"
experimental_value = 30

[[record]]
molecule = "O=C(Nc1ccc2c(c1)OCO2)NC1CCN(c2ccnc(NCc3ccc(F)cc3)n2)CC1"
experimental_value = 0

[[record]]
molecule = "Cl.NS(=O)(=O)c1cccc(Nc2cc(-c3ccc(F)cc3)n[nH]2)c1"
experimental_value = 0

[[record]]
molecule = "CN1C(=O)C(Nc2cc(Cl)c(O)c(Cl)c2)=C(c2ccc(Cl)cc2)C1=O"
experimental_value = 25

[[record]]
molecule = "COc1cc(Nc2nccc(N3CCC(NC(=O)C4COc5ccccc5O4)C3)n2)cc(OC)c1OC (centres unmarked)"
experimental_value = 25

[[record]]
molecule = "Cc1ccccc1COc1cc(-n2cnc3cc(Cl)ccc32)sc1C(N)=O"
experimental_value = 0

[[record]]
molecule = "COC(=O)c1c(-c2ccccc2)c2cc(Br)ccc2c(=O)n1Cc1ccc(NC(=O)CCC(=O)O)cc1"
experimental_value = 38

[[record]]
molecule = "COc1cccc(C2=C(N(C)c3ccccc3)C(=O)NC2=O)c1"
experimental_value = 8

[[record]]
molecule = "CCCC(=O)Nc1n[nH]c2ncc(-c3cccc4ccccc34)cc12"
experimental_value = 7

[[record]]
molecule = "COc1cc2nccc(Nc3ccc(OCc4ccc(NC(C)=O)cc4)cc3)c2cc1OC.Cl"
experimental_value = 31

[[record]]
molecule = "COc1cc2ncn(-c3cc(OCc4ccc(S(C)(=O)=O)cc4)c(C(N)=O)s3)c2cc1OC"
experimental_value = 0

[[record]]
molecule = "Cn1c(=O)c(F)c(Nc2ccc(I)cc2F)c2c(=O)n(OC[C@H](O)CO)cnc21"
experimental_value = 0

[[record]]
molecule = "COc1cc2nccc(Nc3cccc(Oc4ccccc4)c3)c2cc1OC.Cl"
experimental_value = 28


---

- Test system: PFTAIRE2
- Settings: concentration: 1 μM, replicates: in singlicate; n = 1
Recorded Endpoint: %Inh (%)

[[record]]
compound = "Nc1nc(N)c2nc(-c3ccccc3)[nH]c2n1"
u = "%"
experimental_value = 6

[[record]]
compound = "Cc1nn2c(=O)cc(N3CCOCC3)nc2n1Cc1cccc(Cl)c1Cl"
u = "%"
experimental_value = 0

[[record]]
compound = "COc1cccc(C2=C(N(C)c3ccccc3)C(=O)NC2=O)c1"
u = "%"
experimental_value = 0

[[record]]
compound = "COc1ccc(Nc2nccc(N3CCC(NS(=O)(=O)c4ccc(NC(C)=O)cc4)C3)n2)cc1 (centres unmarked)"
u = "%"
experimental_value = 17

[[record]]
compound = "COC(=O)c1c(-c2ccccc2)c2cc(Br)ccc2c(=O)n1Cc1ccc(NC(=O)CCC(=O)O)cc1"
u = "%"
experimental_value = 17

[[record]]
compound = "Cc1ccc(Oc2ccc(Nc3ncnc4cc[nH]c34)cc2C)cn1"
u = "%"
experimental_value = 7

[[record]]
compound = "Nc1n[nH]c2nnc(-c3ccccc3)c(-c3ccccc3)c12"
u = "%"
experimental_value = 8

[[record]]
compound = "COc1cc2nccc(Nc3ccc(OCc4ccc(NC(C)=O)cc4)cc3)c2cc1OC.Cl"
u = "%"
experimental_value = 77

[[record]]
compound = "Cl.NS(=O)(=O)c1cccc(Nc2cc(-c3ccc(F)cc3)n[nH]2)c1"
u = "%"
experimental_value = 24

[[record]]
compound = "O=C(NCc1cccs1)c1cc(C(=O)c2c(Cl)cccc2Cl)c[nH]1"
u = "%"
experimental_value = 0

[[record]]
compound = "Cc1nnc(-c2ccc(C)c(-c3ccc(C(=O)O)cc3)c2)o1"
u = "%"
experimental_value = 11

[[record]]
compound = "CC(C)(C)c1ccc(C(=O)Nc2cn3cc(-c4ccccc4)ccc3n2)cc1"
u = "%"
experimental_value = 0

[[record]]
compound = "Nc1nccc2scc(-c3ccc4c(c3)CCN4C(=O)Cc3ccccc3)c12"
u = "%"
experimental_value = 25

[[record]]
compound = "COC(=O)c1c(-c2ccccc2)c2cc(Br)ccc2c(=O)n1Cc1ccc(S(C)(=O)=O)cc1"
u = "%"
experimental_value = 7

[[record]]
compound = "Cc1ccc(-c2ccc3c(ccc4sc5c(c43)NC[C@@H](C)N=C5N(C)C)n2)cn1"
u = "%"
experimental_value = 0

[[record]]
compound = "CCC(=O)c1c(-c2ccccc2)c2cc(Cl)ccc2c(=O)n1Cc1cc(S(C)(=O)=O)n(CC(N)=O)n1"
u = "%"
experimental_value = 0

[[record]]
compound = "Nc1n[nH]c2ncc(-c3ccccc3)cc12"
u = "%"
experimental_value = 7

[[record]]
compound = "Nc1ncnc2c1ncn2-c1ccc(Cl)cc1"
u = "%"
experimental_value = 0

[[record]]
compound = "COc1cc2ncn(-c3cc(OCCCc4ccccc4)c(C(N)=O)s3)c2cc1OC"
u = "%"
experimental_value = 8

[[record]]
compound = "Nc1ncnc2c1ncn2-c1cccc(F)c1"
u = "%"
experimental_value = 0


---

%Inh listing for selected compounds.
- System: CSNK2A2
- Settings: concentration: 1 μM, replicates: in singlicate; n = 1
Recorded Endpoint: %Inh (%)

[[record]]
compound = "O=c1cc(N2CCOCC2)nc2n(Cc3ccc(F)c(Cl)c3)ccn12 [GSK2297099]"
recorded_endpoint = "%Inh"
u = "%"
experimental_value = 6

[[record]]
compound = "COc1cc2ncn(-c3cc(OCc4ccncc4Br)c(C(N)=O)s3)c2cc1OC [GW854278]"
recorded_endpoint = "%Inh"
u = "%"
experimental_value = 18

[[record]]
compound = "COc1cccc(C2=C(N(C)c3ccccc3)C(=O)NC2=O)c1 [SB-334865]"
recorded_endpoint = "%Inh"
u = "%"
experimental_value = 3

[[record]]
compound = "Cc1cccc(-c2cc(-c3c[nH]nc3-c3ccccn3)ccn2)c1 [GW679395]"
recorded_endpoint = "%Inh"
u = "%"
experimental_value = 8

[[record]]
compound = "COC(=O)c1c(-c2ccccc2)c2cc(Br)ccc2c(=O)n1Cc1ccc(NC(=O)CCC(=O)O)cc1"
recorded_endpoint = "%Inh"
u = "%"
experimental_value = 19

[[record]]
compound = "Cc1ccccc1COc1cc(-n2cnc3cc(Cl)ccc32)sc1C(N)=O [GW813349]"
recorded_endpoint = "%Inh"
u = "%"
experimental_value = 54

[[record]]
compound = "CCc1ccc(-c2ccc3c(c2)-c2nn(C)cc2S(=O)(=O)N3C)cc1"
recorded_endpoint = "%Inh"
u = "%"
experimental_value = 0

[[record]]
compound = "Cc1nnc(-c2ccc3ncn(-c4ccc(S(C)=O)cc4)c3c2)o1 (stereo not drawn)"
recorded_endpoint = "%Inh"
u = "%"
experimental_value = 35

[[record]]
compound = "O=C(NCc1cccs1)c1cc(C(=O)c2c(Cl)cccc2Cl)c[nH]1 [GW823670]"
recorded_endpoint = "%Inh"
u = "%"
experimental_value = 0


---

- System: TNK2
- Settings: concentration: 1 μM, replicates: in singlicate; n = 1
%Inh listing for selected compounds.
Recorded Endpoint: %Inh

[[record]]
compound = "COc1cc(OC)cc(-c2cc3cnc(N)nc3nc2NC(=O)NC(C)(C)C)c1"
experimental_value = "100%"

[[record]]
compound = "Cc1nn2c(=O)cc(N3CCOCC3)nc2n1Cc1cccc(Cl)c1Cl"
experimental_value = "16%"

[[record]]
compound = "CN1C(=O)C(Nc2cc(Cl)c(O)c(Cl)c2)=C(c2ccc(Cl)cc2)C1=O"
experimental_value = "0%"

[[record]]
compound = "CCS(=O)c1ccc(-c2coc3ccc(-c4nnc(C)o4)cc23)cc1 (stereo not drawn)"
experimental_value = "3%"

[[record]]
compound = "Nc1n[nH]c2ncc(-c3ccccc3)cc12"
experimental_value = "21%"

[[record]]
compound = "O=C(Nc1n[nH]c2nc(-c3ccccc3)c(Cl)cc12)C1CC1"
experimental_value = "0%"

[[record]]
compound = "Cc1c(Cn2c(C)nn3c(=O)cc(N4CCO[C@H](C)C4)nc23)cccc1C(F)(F)F"
experimental_value = "13%"

[[record]]
compound = "COc1cc2ncn(-c3cc(OCc4ccncc4)c(C(N)=O)s3)c2cc1OC"
experimental_value = "5%"

[[record]]
compound = "Cc1cccc(-c2cc(-c3c[nH]nc3-c3ccccn3)ccn2)c1"
experimental_value = "4%"

